Just for reference, PubChem BioAssay (NCI) is where these values come from.

system: EKVX NSCLC; test: NCI tumour cell line growth inhibition, 48 h
PROPERTY_MEASURED: TGI

Some solved cases for reference:
COMPOUND	TARGET_UNDER_TEST	TGI
C/C=C1/CN2CCC3(O)c4ccccc4N4C=C(C(=O)OC)C1CC2C43O (stereo not given)	EKVX NSCLC	> 100 µM
O=C(CCCNc1nc(-c2ccccc2)cs1)c1cccs1	EKVX NSCLC	> 100 µM
CC(C)(C)OC(=O)N(O)CCCn1cnc2c(N)ncnc21	EKVX NSCLC	> 100 µM

Give measured TGI for every item shown.
1. O=C(NNC(c1ccccc1)C(F)(F)F)c1ccncc1 (stereo not given)
2. Cc1ccc2c(sc(-c3ccc4c(c3)sc(-c3ccc5c(c3)sc(-c3ccc(N(C)C)cc3)[n+]5C)[n+]4C)[n+]2C)c1S(=O)(=O)O (tested in a mixture with another compound)
3. O=C(Nc1cccc(Cc2cccc(NC(=O)c3ccccc3)c2)c1)c1ccccc1
4. COC(=O)CCC(=O)Nc1cc(Cl)ccc1Cl
5. Cc1cc(-c2nc3ccccc3s2)ccc1N
6. Oc1ccccc1C=Nc1ccc(-c2nc3ccccc3[nH]2)cc1
7. CC(=O)N1c2ccccc2NC2=C(C(=O)N(Cc3ccccc3)C2(C)C)C1c1ccco1 (stereo not given)

> 100 µM
> 100 µM
> 100 µM
> 100 µM
> 95.3 µM
> 100 µM
> 25 µM
